This section presents compounds with their documented melting point values.

// worked examples, melting point included
* CC(=O)OC1CSC(Oc2ccc(-c3ccco3)nc2)C(OC(C)=O)C1OC(C)=O (stereo unspecified) | 133 °C
* Cc1c(C(=O)O)c[nH]c1C(=O)c1ccccc1 | 241 to 243 °C
* CC(C)On1c(C2CCCCC2)nc2c(N)nc3ccccc3c21 | 175 to 178 °C
* COC(=O)CCCC(C)(C)c1cc(Cl)c(O)c(Cl)c1 | 101 to 103 °C

Could you now look at the following compound, please?
Exercise: Suppose we examine the compound O=C(CCCCO)NCC1Cc2ccccc2Cc2ccccc21 (stereo unspecified) ; what melting point value has been reported?
Solution: 96 to 98 °C
